molecular target: α7 nAChR (Rattus norvegicus, UniProt Q05941); assay: [3H]-MLA competition binding assay, rat brain membranes; conditions: Ki, inhibition of [3H]-MLA binding (3.0 to 4.0 nM), Sprague-Dawley rat whole brain minus cerebellum homogenate, 1 hour at 25° C
Sequence (Q05941 23-502): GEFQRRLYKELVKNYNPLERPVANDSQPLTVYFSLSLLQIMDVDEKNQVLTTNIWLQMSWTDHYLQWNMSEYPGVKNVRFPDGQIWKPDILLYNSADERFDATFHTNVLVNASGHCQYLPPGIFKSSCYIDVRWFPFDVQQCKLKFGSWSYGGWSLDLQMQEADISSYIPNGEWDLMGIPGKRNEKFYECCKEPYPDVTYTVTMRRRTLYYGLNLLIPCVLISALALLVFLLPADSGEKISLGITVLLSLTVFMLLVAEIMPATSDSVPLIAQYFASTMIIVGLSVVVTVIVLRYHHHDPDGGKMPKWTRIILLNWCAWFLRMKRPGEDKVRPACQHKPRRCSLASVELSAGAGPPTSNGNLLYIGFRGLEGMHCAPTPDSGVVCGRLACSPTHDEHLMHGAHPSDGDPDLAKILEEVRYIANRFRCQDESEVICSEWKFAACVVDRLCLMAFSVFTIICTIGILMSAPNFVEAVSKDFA
Structures can show the parent of a compound that is named as a salt.
measure.name: Ki

// query Ki value for entry COc1ccccc1-c1cnc(C(=O)N[C@H]2CN3CCC2CC3)o1 [Example 84, 4-methylbenzenesulfonate]
1.1 to 1.49 µM

// query Ki value for entry COc1cccc(-c2ccc(C(=O)N[C@H]3CN4CCC3CC4)o2)c1 [Example 119, 4-methylbenzenesulfonate]
0.415 to 0.56 µM

// query Ki value for entry O=C(N[C@H]1CN2CCC1CC2)c1ccc(-c2cc(F)ccc2F)o1 [Example 117, hydrochloride]
1.86 µM

// query Ki value for entry O=C(N[C@H]1CN2CCC1CC2)c1ccc(-c2cc(F)cc(F)c2)o1 [Example 133, hydrochloride]
0.03 to 0.07 µM

// query Ki value for entry O=C(N[C@H]1CN2CCC1CC2)c1ncc(-c2ccccc2Cl)s1 [Example 94, 4-methylbenzenesulfonate]
0.125 µM

// query Ki value for entry Cc1nc(C(=O)N[C@H]2CN3CCC2CC3)sc1-c1ccccc1 [Example 89, 4-Methylbenzenesulfonate]
0.31 to 0.4 µM

// query Ki value for entry O=C(N[C@H]1CN2CCC1CC2)c1cnc(-c2ccccc2F)s1 [Example 52, Citrate]
0.34 to 0.48 µM

* * *

biological target: α7 nAChR (Rattus norvegicus); experiment: [3H]-MLA competition binding assay, rat brain membranes; settings: Ki, inhibition of [3H]-MLA binding (3.0 to 4.0 nM), Sprague-Dawley rat whole brain minus cerebellum homogenate, 1 hour at 25° C
Could you please report measured Ki for the items listed next?

// query Ki value for entry O=C(N[C@H]1CN2CCC1CC2)c1cnc(-c2ccccc2)o1 [Example 155, 4-methylbenzenesulfonate]
1380 nM

// query Ki value for entry "O=C(N[C@H]1CN2CCC1CC2)c1ccc(Sc2ccc(Cl)cc2)s1"
27 nM

// query Ki value for entry O=C(N[C@H]1CN2CCC1CC2)c1ncc(-c2cccc(Cl)c2)s1 [Example 99, 4-methylbenzenesulfonate]
310 to 325 nM

// query Ki value for entry COc1ccccc1-c1ccc(C(=O)N[C@H]2CN3CCC2CC3)o1 [Example 118, 4-methylbenzenesulfonate]
45 to 69 nM

// query Ki value for entry CC1C(NC(=O)c2ccc(Br)s2)C2CCN1CC2 (mixture of isomers) [Example 158, 4-Methylbenzenesulfonate]
12 to 20 nM

// query Ki value for entry "O=C(N[C@H]1CN2CCC1CC2)c1ncc(-c2cccc([N+](=O)[O-])c2)s1"
190 to 375 nM

// query Ki value for entry O=C(N[C@H]1CN2CCC1CC2)c1ncc(-c2ccccc2Cl)o1 [Example 86, 4-methylbenzenesulfonate]
30 to 40 nM

* * *

biological target: α7 nAChR (Rattus norvegicus); assay: [3H]-MLA competition binding assay, rat brain membranes; settings: Ki, inhibition of [3H]-MLA binding (3.0 to 4.0 nM), Sprague-Dawley rat whole brain minus cerebellum homogenate, 1 hour at 25° C
Counter-ions that a name gives are not always drawn.
measure.name: Ki

// query Ki value for entry "O=C(N[C@H]1CN2CCC1CC2)c1ccc(Sc2cccc(Cl)c2)s1"
0.03 to 0.05 µM

// query Ki value for entry O=C(N[C@H]1CN2CCC1CC2)c1ccc(-c2ccc([N+](=O)[O-])cc2)o1 [Example 112, 4-methylbenzenesulfonate]
0.005 to 0.024 µM

// query Ki value for entry O=C(N[C@H]1CN2CCC1CC2)c1ccc(C#Cc2ccccc2)o1 [Example 150, 4-Methylbenzenesulfonate]
0.29 to 0.33 µM

// query Ki value for entry O=C(N[C@H]1CN2CCC1CC2)c1cc(-c2ccccc2)cs1 [Example 8, hydrochloride]
0.046 µM

// query Ki value for entry Cc1cc(C(=O)N[C@H]2CN3CCC2CC3)oc1C [Example 128, hydrochloride]
0.006 to 0.007 µM

// query Ki value for entry O=C(N[C@H]1CN2CCC1CC2)c1ccc(-c2ccccc2[N+](=O)[O-])s1 [Example 6, hydrochloride]
0.005 to 0.01 µM

// query Ki value for entry O=C(N[C@H]1CN2CCC1CC2)c1nc(-c2ccccc2)no1 [Example 154, 4-methylbenzenesulfonate]
> 1 µM

// query Ki value for entry N#Cc1cccc(-c2cnc(C(=O)N[C@H]3CN4CCC3CC4)o2)c1 [Example 87, 4-methylbenzenesulfonate]
0.13 to 0.15 µM

// query Ki value for entry O=C(N[C@H]1CN2CCC1CC2)c1ncc(-c2ccccc2[N+](=O)[O-])o1 [Example 83, 4-methylbenzenesulfonate]
0.002 to 0.003 µM

// query Ki value for entry "Nc1ccccc1-c1ccc(C(=O)N[C@H]2CN3CCC2CC3)s1"
0.045 to 0.075 µM

// query Ki value for entry Cc1cccc(-c2ccc(C(=O)N[C@H]3CN4CCC3CC4)o2)c1 [Example 136, 4-methylbenzenesulfonate]
0.015 to 0.02 µM

// query Ki value for entry O=C(N[C@H]1CN2CCC1CC2)c1ccc([N+](=O)[O-])s1 [Example 16, Hydrochloride]
0.003 to 0.008 µM
